System: SK-MEL-28 melanoma
Test: NCI-60 one-dose screen, 48 h
Conditions: 10 µM unless noted
About 83,000 compounds went through this panel and 20% of them were active in at least one assay; those are over-represented in the sample as a whole. Calls of active or inactive are those of the source. Rule for the calls: active = growth percent below 10; inactive = the rest.
Labels: active, inactive

{"COMPOUND": "N=C(N)c1ccc(-c2ccc(-c3ccc(Cl)cc3)o2)o1", "LABEL CLASS": "inactive"}
{"COMPOUND": "Cc1cc(C)cc(Nc2ccc([N+](=O)[O-])c(NCCN3CCOCC3)n2)c1", "LABEL CLASS": "inactive"}
{"COMPOUND": "Cn1cc(-c2csc(-c3cn(C)c4ccc(Br)cc34)n2)c2cnccc21", "LABEL CLASS": "active"}
{"COMPOUND": "N#Cc1nc(-c2ccc(F)cc2)oc1S(=O)(=O)N1CCN(c2ccc(F)cc2)CC1", "LABEL CLASS": "inactive"}
{"COMPOUND": "COc1ccc(C2=NN(C(=O)c3cc(OC)c(OC)c(OC)c3)C(c3ccc(N(C)C)cc3)C2)cc1 (stereo not drawn)", "LABEL CLASS": "inactive"}
{"COMPOUND": "COCCCOc1cc(C[C@@H](C[C@H](N)[C@@H](O)C[C@H](C(=O)NCC(C)(C)C(N)=O)C(C)C)C(C)C)ccc1OC", "LABEL CLASS": "inactive"}
{"COMPOUND": "CCn1c2ccc(O)cc2c2c(C)c3c[n+](C(C)C)ccc3c(C)c21", "LABEL CLASS": "inactive"}
{"COMPOUND": "COc1ccc(/C=C/C(=O)c2cc3c(N)c(C(=O)Nc4ccccc4C)sc3nc2C)cc1", "LABEL CLASS": "inactive"}
{"COMPOUND": "COc1ccc(-c2cc(-c3ccc(OC)cc3)nc(NCCCNc3ccnc4cc(Cl)ccc34)n2)cc1", "LABEL CLASS": "inactive"}
{"COMPOUND": "N#Cc1nc2c(S(=O)(=O)c3ccccc3)c(N)n(Cc3cccnc3)c2nc1C#N", "LABEL CLASS": "inactive"}
{"COMPOUND": "Cc1nc2sc(C(=O)Nc3ccccc3)c(N)c2cc1C(=O)/C=C/c1ccccc1", "LABEL CLASS": "inactive"}
{"COMPOUND": "C=CCCC(=O)N1C=CC(=O)[C@H](O)[C@@H]1/C=C/c1ccccc1", "LABEL CLASS": "inactive"}
{"COMPOUND": "Cc1cc(C)c(-c2c(O)c(Br)c(-c3c(C)cc(C)c(Br)c3C)c(O)c2Br)c(C)c1Br", "LABEL CLASS": "inactive"}
{"COMPOUND": "c1ccc(CCc2ccccc2-c2cc(-c3ccccc3)on2)cc1", "LABEL CLASS": "inactive"}
{"COMPOUND": "COc1cc(C(=O)C(=O)c2cc(OC)c(O)c(OC)c2)cc(OC)c1O", "LABEL CLASS": "inactive"}
{"COMPOUND": "COc1cccc2c(N=NC(=O)c3ccc(S(N)(=O)=O)cc3)c(O)[nH]c12", "LABEL CLASS": "inactive"}
{"COMPOUND": "Cc1cc(N2CCN(C)CC2)nc(NCc2cc(Nc3ccnc4cc(Cl)ccc34)ccc2F)n1", "LABEL CLASS": "active"}
{"COMPOUND": "CCOC(=O)c1c2c(n3ccccc13)C(=O)c1ncccc1C2=O", "LABEL CLASS": "inactive"}
{"COMPOUND": "C=C(C)[C@@H]1CC[C@]2(CO)CC[C@]3(C)[C@H](CC[C@@H]4[C@@]5(C)CCC(NCCc6ccc(O)cc6)C(C)(C)[C@@H]5CC[C@]43C)[C@@H]12 (stereo partly drawn)", "LABEL CLASS": "active"}
{"COMPOUND": "NS(=O)(=O)c1ccc(N/C=C/C(=O)c2cc3ccccc3oc2=O)cc1", "LABEL CLASS": "inactive"}
{"COMPOUND": "N#C/C(=C\\c1ccc(Cl)cc1Cl)C(=O)Nc1ncc(Cc2ccc(Cl)c(Cl)c2)s1", "LABEL CLASS": "inactive"}
{"COMPOUND": "CCN(CC)S(=O)(=O)c1ccc(S(=O)(=O)N2CCC[C@@H](C(=O)N3CCN(C(=O)OC(C)(C)C)CC3)C2)cc1", "LABEL CLASS": "inactive"}
{"COMPOUND": "CN1C(=O)/C(=C/c2ccc(C(=O)Nc3ncc(Cc4ccc(F)cc4)s3)cc2)SC1=S", "LABEL CLASS": "inactive"}
{"COMPOUND": "N#Cc1c(-c2cccc([N+](=O)[O-])c2)cc(-c2ccc(Nc3nc(Nc4ccc(F)cc4)nc(Nc4ccc(F)cc4)n3)cc2)nc1N", "LABEL CLASS": "inactive"}
{"COMPOUND": "Nc1n[nH]c2ccc([C@@H]3Nc4cc5[nH]ncc5cc4[C@H]4C5CCC(C5)[C@@H]34)cc12 (stereo partly drawn)", "LABEL CLASS": "inactive"}
{"COMPOUND": "C(/C=C/c1ccccc1)=Nc1ccc(CCc2ccc(N=C/C=C/c3ccccc3)cc2)cc1", "LABEL CLASS": "inactive"}
{"COMPOUND": "Cc1ccc(/C=C(\\C#N)C(=O)Nc2ncc(Cc3cc(Cl)ccc3Cl)s2)o1", "LABEL CLASS": "inactive"}
{"COMPOUND": "CN(C)c1ccc(/C=C/C(=O)c2ccccc2)cc1", "LABEL CLASS": "inactive"}
